B1: PTPRD (parent)
chain: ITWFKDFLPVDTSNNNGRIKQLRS

Variants of: B1
Procedure Details: protein stability index of a GFP-peptide fusion (GPS, HEK-293T) (PSI 1-6); higher = more stable;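 further: lentivirally expressed fusions sorted by FACS into six bins by GFP to DsRed ratio, PSI derived from sequencing read proportions per bin multiplied by bin number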
Measurement Context: c terminus: a fixed tail appended

{"columns": ["Seq", "protein stability index"],
 "data": [
  ["ITLFKDFLPVDTSNNNGRIKQLRS [W3L]", 2.31],
  ["ITWFKDFLPVDTSNNNGRIKQLMS [R23M]", 1.88],
  ["ITWFKDFLPVDTSNNNGRIKQLRI [S24I]", 1.97],
  ["ITWFKDFLPVDTSNNNGRIKMLRS [Q21M]", 1.45],
  ["ITWFKDFIPVDTSNNNGRIKQLRS [L8I]", 2.32],
  ["ITWFKDFLPVDTSNWNGRIKQLRS [N15W]", 2.17],
  ["ITWFKDFLPVDTSNNNGIIKQLRS [R18I]", 1.74],
  ["ITWFKDFLPVDTSNNNGRIKTLRS [Q21T]", 1.69],
  ["ITWFKDFLPVDTSANNGRIKQLRS [N14A]", 2.03],
  ["ITDFKDFLPVDTSNNNGRIKQLRS [W3D]", 3.43],
  ["ITWFKDFLPVDTSNNNGAIKQLRS [R18A]", 1.8],
  ["ITWFKDFLPVDTSNNNGRIKQLAS [R23A]", 2.89],
  ["ITWFKDFLPVDTSNNNGRIKVLRS [Q21V]", 1.67],
  ["ITWFYDFLPVDTSNNNGRIKQLRS [K5Y]", 2.75],
  ["ITWFKDFLPVDTSNNNGRIKQCRS [L22C]", 1.61],
  ["ITWFKDFLPVDTSNHNGRIKQLRS [N15H]", 1.48],
  ["ITWFKCFLPVDTSNNNGRIKQLRS [D6C]", 2.26],
  ["ITWFKDFLPVDTSNENGRIKQLRS [N15E]", 1.69],
  ["ITWFKDFLPVDTSNNNGRPKQLRS [I19P]", 1.69],
  ["HTWFKDFLPVDTSNNNGRIKQLRS [I1H]", 3.47],
  ["ITWFKKFLPVDTSNNNGRIKQLRS [D6K]", 1.85],
  ["ITWFKDFLPVRTSNNNGRIKQLRS [D11R]", 1.35],
  ["ITWFKDFLFVDTSNNNGRIKQLRS [P9F]", 1.93],
  ["ITWGKDFLPVDTSNNNGRIKQLRS [F4G]", 3.35],
  ["YTWFKDFLPVDTSNNNGRIKQLRS [I1Y]", 1.92],
  ["ITWFADFLPVDTSNNNGRIKQLRS [K5A]", 1.98],
  ["ITWFSDFLPVDTSNNNGRIKQLRS [K5S]", 2.37],
  ["ITWFKDFLPVDTSNNNGRSKQLRS [I19S]", 1.54],
  ["ITWFKDFLPVDTSNNNGRIKQLRF [S24F]", 1.69],
  ["ITWFKDFLPVDTSNNNGRIKQKRS [L22K]", 1.77],
  ["ITWFKDFLPVDCSNNNGRIKQLRS [T12C]", 1.55],
  ["ITWFKDFLPVDTSNLNGRIKQLRS [N15L]", 2.37],
  ["ITWFKYFLPVDTSNNNGRIKQLRS [D6Y]", 2.85],
  ["ITWFKDFLPVDTSNNEGRIKQLRS [N16E]", 2.02]
]}
